Assay: Tissue distribution of An2-PAPTP and metabolites (liver, spleen, kidneys, heart) after i.v. injection
Format: in vivo, mouse
Details: after An2-PAPTP i.v.; spleen; mean ± SEM, N = 5
Description: The total amount of An2-PAPTP and its metabolites, summarized in Table 3, is comprehensive of all the species having the characteristic psoralenic UV spectrum obtained by the overall extraction procedure (i.e., from organic solvent extraction and basic hydrolysis of the remaining pellet), and represents and underestimation of the real concentration in the tissue (see Section 4.7.3). […]
readout: metabolite in spleen, 15 min (% administered dose)
Your answer is read as % administered dose, so omit the unit and give the number.

Use the examples below as a reference point.
CCC(C)C(NC(=O)Oc1ccc(CCCOc2ccc([P+](CCCc3ccc(OCCCCOc4c5ccoc5cc5oc(=O)ccc45)cc3)(c3ccccc3)c3ccccc3)cc2)cc1)C(=O)O.O=C([O-])C(F)(F)F (stereo not shown) [PAPTPL-I] : 0.04
CC[C@H](C)[C@H](NC(=O)Oc1ccc(CCCOc2ccc([P+](CCCc3ccc(OCCCCOc4c5ccoc5cc5oc(=O)ccc45)cc3)(c3ccccc3)c3ccccc3)cc2)cc1)C(=O)N[C@H](C(=O)N[C@@H](Cc1ccccc1)C(=O)O)[C@@H](C)O [PAPTPL-ITF] : 0.13
O=C([O-])C(F)(F)F.O=c1ccc2c(OCCCCOc3ccc(CCC[P+](c4ccccc4)(c4ccccc4)c4ccc(OCCCc5ccc(O)cc5)cc4)cc3)c3ccoc3cc2o1 [PAPTPL] : 0.05

We now examine a further molecule.
Quick note, metabolite in spleen, 15 min for CC[C@H](C)[C@H](NC(=O)Oc1ccc(CCCOc2ccc([P+](CCCc3ccc(OCCCCOc4c5ccoc5cc5oc(=O)ccc45)cc3)(c3ccccc3)c3ccccc3)cc2)cc1)C(=O)N[C@H](C(=O)O)[C@@H](C)O [PAPTPL-IT, PAPTPL-isoleucine- threonine] landed at 0.10

Values were extracted from paper PMC7914648.
